SYSTEM: DGKζ (Homo sapiens (Human))
Sequence (Q13574 other isoform, or with tags, fused parts or gaps): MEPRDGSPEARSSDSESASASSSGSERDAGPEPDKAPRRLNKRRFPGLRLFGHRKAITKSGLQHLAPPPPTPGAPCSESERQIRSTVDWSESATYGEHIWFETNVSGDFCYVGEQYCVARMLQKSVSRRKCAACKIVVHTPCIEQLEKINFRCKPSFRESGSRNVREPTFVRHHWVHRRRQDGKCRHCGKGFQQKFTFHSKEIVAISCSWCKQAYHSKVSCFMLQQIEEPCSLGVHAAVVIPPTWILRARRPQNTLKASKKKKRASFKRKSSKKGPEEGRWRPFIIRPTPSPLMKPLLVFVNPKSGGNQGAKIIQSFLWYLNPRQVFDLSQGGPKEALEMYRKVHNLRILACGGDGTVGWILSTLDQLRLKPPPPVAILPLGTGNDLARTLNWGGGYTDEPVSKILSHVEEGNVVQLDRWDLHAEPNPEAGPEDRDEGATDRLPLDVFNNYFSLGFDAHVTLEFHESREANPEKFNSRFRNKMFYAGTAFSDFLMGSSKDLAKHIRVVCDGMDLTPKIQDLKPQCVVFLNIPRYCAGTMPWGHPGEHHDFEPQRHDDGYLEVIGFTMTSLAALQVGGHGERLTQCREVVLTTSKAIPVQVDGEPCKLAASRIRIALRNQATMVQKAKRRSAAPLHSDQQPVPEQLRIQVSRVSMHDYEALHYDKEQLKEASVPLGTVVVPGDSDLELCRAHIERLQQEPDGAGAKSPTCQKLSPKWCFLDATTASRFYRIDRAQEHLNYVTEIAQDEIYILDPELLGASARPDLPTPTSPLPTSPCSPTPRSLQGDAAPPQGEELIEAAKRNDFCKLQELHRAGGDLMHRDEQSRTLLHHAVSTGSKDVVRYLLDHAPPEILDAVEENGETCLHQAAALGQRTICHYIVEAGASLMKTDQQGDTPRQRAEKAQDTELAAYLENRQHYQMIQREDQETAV
ASSAY EXPLANATION: Biochemical DGK IC50 assay, DGKζ ADP-Glo assay
RUN CONDITIONS: 0.5 nM enzyme, 140 μM ATP, 80 μM DAG; read-out: DGKζ ADP-Glo assay IC50
pIC50: −log10 of the molar value.
Kindly return Met if reported pIC50 is no lower than 6; return Not met if it is lower.

1. CC[C@H]1CN(C(C)c2ccc(F)c(OC)c2)[C@H](CC)CN1c1cc(=O)n(C)c2cn(CC#N)nc12 (stereo partly drawn)
Met
2. CC[C@@H]1CN(c2cc(=O)n(C)c3cn(CC#N)nc23)[C@@H](C)CN1C(C)c1ccc(F)cc1OC (stereo partly drawn)
Met
3. CC[C@H]1CN(C(C)c2ccc3nc(O)cnc3c2)[C@H](CC)CN1c1cc(=O)n(C)c2cn(CC#N)nc12 (single isomer, unassigned) [Compound A282a]
Not met
4. CC[C@H]1CN(C(C)c2ccc3c(n2)OCC3)[C@H](CC)CN1c1cc(=O)n(C)c2cn(CC#N)nc12 (stereo partly drawn)
Met
5. CC[C@H]1CN(C(C)c2ccc(CN3CCC(F)(F)CC3)nc2)[C@H](CC)CN1c1cc(=O)n(C)c2cn(CC#N)nc12 (single isomer, unassigned) [Compound A381a]
Met
6. CC[C@@H]1CN(c2cc(=O)n(C)c3cn(CC#N)nc23)[C@@H](CC)CN1C(=O)c1ccc2cccnc2c1
Not met
7. CC[C@H]1CN(C(C)c2ccc(OC(F)(F)F)cn2)[C@H](CC)CN1c1cc(=O)n(C)c2cn(CC#N)nc12 (stereo partly drawn)
Met
8. CC(c1ccc2c(c1)OCCO2)N1C[C@H](C)N(c2cc(=O)n(C)c3cn(CC#N)nc23)C[C@H]1C (single isomer, unassigned) [Compound A43a]
Not met
9. CC[C@H]1CN(C(C)c2cnc(C(F)(F)F)n2CC)[C@H](CC)CN1c1cc(=O)n(C)c2cn(CC#N)nc12 (stereo partly drawn)
Met
10. CC[C@@H]1CN(c2c(C#N)c(=O)[nH]c3cn(CC#N)nc23)[C@@H](C)CN1C(C)c1ccc2nccnc2c1 (single isomer, unassigned) [Compound A200b]
Not met
11. CC[C@@H]1CN(c2cc(=O)n(C)c3cn(CC#N)nc23)[C@@H](C)CN1C(C)c1ccc2nccnc2c1 (single isomer, unassigned) [Compound A97a]
Met
12. CC[C@H]1CN(C(C)c2ccc(C)nc2)[C@H](CC)CN1c1cc(=O)n(C)c2cn(CC#N)nc12 (single isomer, unassigned) [Compound A349b]
Not met
13. C=CCn1cc2c(n1)c(N1C[C@@H](C)N(C(C)c3ccc4nccnc4c3)C[C@@H]1C)cc(=O)n2C (single isomer, unassigned)
Met
14. CC(c1ccc(F)cc1CC#N)N1C[C@H](C)N(c2cc(=O)n(C)c3cn(CC#N)nc23)C[C@H]1C (single isomer, unassigned) [Compound A287b]
Met
15. CC[C@H]1CN(C(C)c2ccc(F)cc2C)[C@H](CC)CN1c1cc(=O)n(C)c2cn(CC#N)nc12 (stereo partly drawn)
Met
16. CCc1c(C(C)N2C[C@H](CC)N(c3cc(=O)n(C)c4cn(CC#N)nc34)C[C@H]2CC)cnn1C (single isomer, unassigned) [Compound A213b]
Not met
17. CC[C@H]1CN(C(C)c2ccc(Cl)cn2)[C@H](CC)CN1c1cc(=O)n(C)c2cn(CC#N)nc12 (single isomer, unassigned) [Compound A360b]
Met
18. CC[C@H]1CN(C(C)c2ccc3nccnc3c2)[C@H](C)CN1c1cc(=O)n(C)c2cn(CC#N)nc12 (single isomer, unassigned) [Compound A98b]
Not met
19. [2H]C([2H])([2H])c1cnc2ccc(C(C)N3C[C@H](C)N(c4cc(=O)n(C)c5cn(CC#N)nc45)C[C@H]3C)cc2n1 (stereo partly drawn) [Compound A313]
Met
20. C=CCCn1cc2c(n1)c(N1C[C@@H](C)N(C(C)c3ccc4nccnc4c3)C[C@@H]1C)cc(=O)n2C (single isomer, unassigned)
Met
21. CC[C@H]1CN(C(C)c2ccc3nc(O)cnc3c2)[C@H](CC)CN1c1cc(=O)n(C)c2cn(CC#N)nc12 (single isomer, unassigned) [Compound A282b]
Not met
22. Cc1cnc2ccc([C@H](C)N3C[C@H](C)N(c4cc(=O)n(C)c5cn(CC=C(F)F)nc45)C[C@H]3C)cc2n1
Met
